# Test system: CAL120
# test.protocol: cell proliferation (confluence) relative to DMSO control; higher = less growth inhibition
# experimental.conditions: 5 uM; 6 d
Each entry below carries its recorded cell proliferation.
// return numeric value only (unit: %, not printed)

>>> test_result("Cc1nnc2c3ccccc3c(N[C@@H](C)[C@H](c3ccccc3)N(C)C)nn12")
99.2
>>> test_result("O=C([C@@H](Cc1cccc(C(F)(F)F)c1)NS(=O)(=O)c1cc(F)c2c(c1)CCNC2)N1CCCC1")
97.2

Look at this compound and give its reported cell proliferation. CCCOc1ccn2c(C(C)=O)cc(-c3ccccc3S(C)(=O)=O)c2c1
99

Look at this compound and give its reported cell proliferation. CNCCN1CCC(OCc2ccccc2)CC1
97.3

Look at this compound and give its reported cell proliferation. CCN(C(=O)CO)[C@H]1CN(/C(=N\C#N)Nc2cccc(OC(F)F)c2)N=C1c1ccc(Cl)c(Cl)c1
90.8

Look at this compound and give its reported cell proliferation. CCOC(=O)CCNc1cc(N2CCc3ccccc3CC2)nc(-c2cccnc2)n1
94.6

###

# Tested on: SUM149-PT
# test.protocol: cell proliferation (confluence) relative to DMSO control; higher = less growth inhibition
# experimental.conditions: 5 uM; 6 d
Each entry below carries its recorded cell proliferation.

Consider the worked cases shown below.
>>> test_result("CCN(C(=O)CO)[C@H]1CN(/C(=N\\C#N)Nc2cccc(OC(F)F)c2)N=C1c1ccc(Cl)c(Cl)c1")
"75.9%"
>>> test_result("COc1ccccc1S(=O)(=O)Nc1ccc2c(c1)CN(C)C(=O)N2")
"20.8%"
>>> test_result("COc1ccc(CCc2nc3cc(-c4c(C)noc4C)ccc3n2C[C@H](C)N2CCOCC2)cc1Cl")
"34.4%"
>>> test_result("COc1cc2c(cc1OCCCN1CCCC1)N=C(N)C21CCC1")
"78.6%"
>>> test_result("CNCCN1CCC(OCc2ccccc2)CC1")
"72.8%"

Let us move to another entry and its cell proliferation.
Give the reported cell proliferation for O=C([C@@H](Cc1cccc(C(F)(F)F)c1)NS(=O)(=O)c1cc(F)c2c(c1)CCNC2)N1CCCC1 (system: SUM149-PT).
87.4%

###

Each entry below carries its recorded cell proliferation.
# System: HCC70
# test.protocol: cell proliferation (confluence) relative to DMSO control; higher = less growth inhibition
# experimental.conditions: 5 uM; 6 d
// return numeric value only (unit: %, not printed)

>>> test_result("Clc1cc2c(NC3CCCC3)nnc(-c3ccncc3)c2cc1Cl")
99.1
>>> test_result("CCCc1cc(C)n(C)c(=O)c1CN(C)C(=O)c1cc(-c2ccc(N3CCN(C(C)C)CC3)nc2)cc2c1cnn2C(C)C")
97.3
>>> test_result("CCC(=O)N1CCOc2c(cc(-c3ccc(OC)c(OC)c3)cc2OC[C@H]2CCCN(C)C2)C1")
92.5
>>> test_result("CCCOc1ccn2c(C(C)=O)cc(-c3ccccc3S(C)(=O)=O)c2c1")
92.2

Let us move to another entry and its cell proliferation.
Look at this compound and give its reported cell proliferation. O=C(NC[C@H](O)CN1CCc2ccccc2C1)c1ccnc(NC2CCC2)c1
95

###

# System: BT549
# test.protocol: cell proliferation (confluence) relative to DMSO control; higher = less growth inhibition
# experimental.conditions: 5 uM; 6 d
Each entry below carries its recorded cell proliferation.
// return numeric value only (unit: %, not printed)

Consider the worked cases shown below.
>>> test_result("CN(C)[C@H]1CN(C2CCc3cccc(F)c32)C[C@@H]1c1ccc(N2CCN(S(C)(=O)=O)CC2)cc1 (stereo not given in full)")
99.8
>>> test_result("CNCCN1CCC(OCc2ccccc2)CC1")
98.3
>>> test_result("CC[C@H](C)n1cc(C)c2c(C(=O)NCc3c(C)cc(C)[nH]c3=O)cc(-c3ccc(N4CCNCC4)nc3)cc21")
98.6
>>> test_result("COc1cc2c(NC3CCN(C(C)C)CC3)nc(C3CCCCC3)nc2cc1OCCCN1CCCC1")
99.5
>>> test_result("Clc1cc2c(NC3CCCC3)nnc(-c3ccncc3)c2cc1Cl")
99.9

Look at this molecule and give its reported cell proliferation. CCCc1cc(C)[nH]c(=O)c1CNC(=O)c1cc(-c2ccnc(N3CCN(C)CC3)c2)cc2c1cnn2C(C)C
99.9

Look at this molecule and give its reported cell proliferation. O=C(c1ccc(C(=O)N2CCC(N3CCCC3)CC2)c(Nc2ccccc2)c1)N1CCC(N2CCCC2)CC1
99.6

Look at this molecule and give its reported cell proliferation. CC(C)Oc1ccc(-c2c[nH]cc2CN(C)CCN)cc1
90.4

Look at this molecule and give its reported cell proliferation. CCCc1cc(C)[nH]c(=O)c1CNC(=O)c1cc(-c2ccc(N3CCN(C(C)C)CC3)nc2)cc2c1cnn2C(C)C
21

Look at this molecule and give its reported cell proliferation. CCOC(=O)CCNc1cc(N2CCc3ccccc3CC2)nc(-c2cccnc2)n1
99.4

Look at this molecule and give its reported cell proliferation. CCCc1cc(C)n(C)c(=O)c1CN(C)C(=O)c1cc(-c2ccc(N3CCN(C(C)C)CC3)nc2)cc2c1cnn2C(C)C
100

Look at this molecule and give its reported cell proliferation. O=C(NC[C@H](O)CN1CCc2ccccc2C1)c1ccnc(NC2CCC2)c1
81.4

Look at this molecule and give its reported cell proliferation. CCN(C(=O)CO)[C@H]1CN(/C(=N\C#N)Nc2cccc(OC(F)F)c2)N=C1c1ccc(Cl)c(Cl)c1
99.6

Look at this molecule and give its reported cell proliferation. Cc1nnc2c3ccccc3c(N[C@@H](C)[C@H](c3ccccc3)N(C)C)nn12
98.1

Look at this molecule and give its reported cell proliferation. CCOC(=O)CCNc1cc(N2CCc3ccccc3CC2)nc(-c2ccccn2)n1
28.2

FYI, the data here is from the supplement of paper PMC9337992.
